Cited source for all entries: paper doi:10.1101/2020.03.06.976563v1

Molecular target: STK16 (Homo sapiens)
Sequence (O75716 whole entry): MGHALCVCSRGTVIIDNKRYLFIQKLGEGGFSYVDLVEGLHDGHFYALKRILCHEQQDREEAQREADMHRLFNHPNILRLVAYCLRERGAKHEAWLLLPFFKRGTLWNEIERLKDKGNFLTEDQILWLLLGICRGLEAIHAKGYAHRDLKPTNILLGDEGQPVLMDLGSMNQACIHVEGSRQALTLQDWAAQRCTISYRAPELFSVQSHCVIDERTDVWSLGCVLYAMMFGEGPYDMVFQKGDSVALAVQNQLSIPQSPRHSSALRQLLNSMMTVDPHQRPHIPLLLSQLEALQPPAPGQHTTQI
Test: biochemical
Each entry below carries its reported Ki.

Worked examples, 4 compounds total:
{"columns": ["Smiles Entry", "Target Of Assay", "Experimental Value"],
 "data": [
  ["OCc1ccccc1Nc1ccnc2ccc(C(F)(F)F)cc12", "STK16 (Homo sapiens)", "5 µM"],
  ["CN(C)c1cccc(Nc2ccnc3ccc(C(F)(F)F)cc23)c1", "STK16 (Homo sapiens)", "13 µM"],
  ["CN(C)c1cccc(Nc2ccnc3ccccc23)c1", "STK16 (Homo sapiens)", "> 100 µM"],
  ["Oc1cccc(Nc2ccnc3ccccc23)c1", "STK16 (Homo sapiens)", "> 100 µM"]
]}

Task: Item `COc1cccc(Nc2ccnc3ccccc23)c1` has what recorded Ki?
Result: > 100 µM

Task: Ki for `COc1ccc2nccc(Nc3cccc(O)c3)c2c1` ?
Result: 27 µM

Task: Report Ki for `OCc1cccc(Nc2ccnc3ccc(C(F)(F)F)cc23)c1` please.
Result: 20 µM

Task: Can you share its Ki? I mean this compound: `COc1cccc(Nc2ccnc3ccc(S(C)(=O)=O)cc23)c1`
Result: > 100 µM

Task: Value lookup for Ki; key = `Oc1cccc(Nc2ccnc3ccc(C(F)(F)F)cc23)c1`
Result: 3 µM

Task: What value of Ki has been reported for the following compound? `O=[N+]([O-])c1cccc(Nc2ccnc3ccc(C(F)(F)F)cc23)c1`
Result: > 100 µM

Task: Sample `COc1cccc(Nc2ccnc3ccc(OC)cc23)c1` — what was its Ki?
Result: > 100 µM

* * *

Target: cyclin G associated kinase (GAK), kinase domain (Homo sapiens, UniProt O14976)
Sequence (O14976 12-347 limits assumed): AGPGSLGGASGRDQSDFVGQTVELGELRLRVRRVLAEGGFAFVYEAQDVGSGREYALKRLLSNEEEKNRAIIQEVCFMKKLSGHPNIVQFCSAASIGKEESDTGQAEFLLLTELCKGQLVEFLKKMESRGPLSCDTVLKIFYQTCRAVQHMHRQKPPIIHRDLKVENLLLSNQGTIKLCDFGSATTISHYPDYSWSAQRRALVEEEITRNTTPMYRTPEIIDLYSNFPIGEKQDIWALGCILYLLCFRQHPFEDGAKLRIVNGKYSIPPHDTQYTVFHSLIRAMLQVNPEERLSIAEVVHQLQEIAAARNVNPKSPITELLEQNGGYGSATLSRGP
Assay: biochemical
Below is a list of entries, each paired with its recorded pKi value.
In plain terms, pKi is the concentration in mol/L turned into minus its base-10 logarithm.

{"columns": ["Compound", "pKi"],
 "data": [
  ["OCc1cccc(Nc2ccnc3ccc(C(F)(F)F)cc23)c1 [compound 11]", 7.22],
  ["COc1cccc(Nc2ccnc3ccccc23)c1 [compound 15, N-(3-methoxyphenyl)quinolin-4-amine]", 7.57],
  ["OCc1ccccc1Nc1ccnc2ccc(C(F)(F)F)cc12 [compound 12]", 7.39],
  ["COc1ccc2nccc(Nc3cccc(O)c3)c2c1 [compound 18, 3-((6-methoxyquinolin-4-yl)amino)phenol]", 8.24],
  ["Oc1cccc(Nc2ccnc3ccc(C(F)(F)F)cc23)c1 [compound 5]", 8.33],
  ["CN(C)c1cccc(Nc2ccnc3ccccc23)c1 [compound 10]", 6.01],
  ["COc1cccc(Nc2ccnc3ccc(S(C)(=O)=O)cc23)c1 [compound 19]", 7.52],
  ["O=[N+]([O-])c1cccc(Nc2ccnc3ccc(C(F)(F)F)cc23)c1 [compound 6]", 6.68]
]}

Task: Item COc1cccc(Nc2ccnc3ccc(OC)cc23)c1 [compound 17] has what recorded pKi?
Result: 8.10

Task: Return reported pKi; argument: Oc1cccc(Nc2ccnc3ccccc23)c1 [compound 16, 3-(quinolin-4-ylamino)phenol]
Result: 7.92

* * *

Molecular target: AAK1 (Homo sapiens, UniProt Q2M2I8)
Sequence (Q2M2I8 whole entry): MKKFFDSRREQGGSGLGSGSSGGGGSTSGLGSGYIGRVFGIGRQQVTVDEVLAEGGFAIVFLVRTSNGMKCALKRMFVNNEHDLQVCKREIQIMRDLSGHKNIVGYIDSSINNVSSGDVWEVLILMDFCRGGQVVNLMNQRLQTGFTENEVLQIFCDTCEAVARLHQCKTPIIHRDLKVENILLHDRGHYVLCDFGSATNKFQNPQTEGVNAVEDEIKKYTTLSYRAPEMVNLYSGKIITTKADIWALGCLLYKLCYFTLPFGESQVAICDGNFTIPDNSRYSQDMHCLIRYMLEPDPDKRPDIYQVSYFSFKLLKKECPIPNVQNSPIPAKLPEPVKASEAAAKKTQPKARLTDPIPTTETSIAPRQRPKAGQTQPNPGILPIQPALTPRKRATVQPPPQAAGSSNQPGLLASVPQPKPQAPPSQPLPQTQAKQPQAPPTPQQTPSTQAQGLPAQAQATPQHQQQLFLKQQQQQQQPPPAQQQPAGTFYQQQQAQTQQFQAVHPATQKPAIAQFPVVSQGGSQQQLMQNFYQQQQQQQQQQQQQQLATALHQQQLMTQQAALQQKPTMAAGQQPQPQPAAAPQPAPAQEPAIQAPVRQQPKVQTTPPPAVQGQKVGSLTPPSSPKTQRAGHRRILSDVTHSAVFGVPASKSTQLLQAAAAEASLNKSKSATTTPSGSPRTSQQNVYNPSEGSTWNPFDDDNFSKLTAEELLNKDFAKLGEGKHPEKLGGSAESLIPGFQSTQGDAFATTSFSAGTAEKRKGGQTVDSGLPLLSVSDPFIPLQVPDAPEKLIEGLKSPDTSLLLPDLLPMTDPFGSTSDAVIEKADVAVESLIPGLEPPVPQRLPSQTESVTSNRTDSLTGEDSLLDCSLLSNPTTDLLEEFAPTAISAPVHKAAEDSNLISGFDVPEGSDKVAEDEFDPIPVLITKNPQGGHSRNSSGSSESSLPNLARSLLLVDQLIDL
Assay: biochemical
Listed compounds paired with reported Ki
Report only the number, with the unit µM understood.

Some solved cases for reference:
{"columns": ["Smiles Entry", "Target Of Assay", "Ki, µM"],
 "data": [
  ["CN(C)c1cccc(Nc2ccnc3ccccc23)c1", "AAK1 (Homo sapiens, UniProt Q2M2I8)", 29],
  ["Oc1cccc(Nc2ccnc3ccc(C(F)(F)F)cc23)c1", "AAK1 (Homo sapiens, UniProt Q2M2I8)", 2.6],
  ["COc1cccc(Nc2ccnc3ccc(S(C)(=O)=O)cc23)c1", "AAK1 (Homo sapiens, UniProt Q2M2I8)", 23],
  ["OCc1ccccc1Nc1ccnc2ccc(C(F)(F)F)cc12", "AAK1 (Homo sapiens, UniProt Q2M2I8)", 8.5],
  ["OCc1cccc(Nc2ccnc3ccc(C(F)(F)F)cc23)c1", "AAK1 (Homo sapiens, UniProt Q2M2I8)", 10]
]}

Proceeding to the next compound to report its Ki.
Task: GET /values?readout=Ki&item= `COc1ccc2nccc(Nc3cccc(O)c3)c2c1`
Result: 1.6
